- Target Of Assay: human EHMT2 913-1193 (Homo sapiens, UniProt Q96KQ7)
- Assay Protocol: EHMT2 enzyme assay on histone peptide substrate (3H-SAM SPA)
- Test Context: EHMT2 IC50, recombinant human EHMT2 913-1193, histone peptide substrate
Metric: IC50

# Compound, IC50
rows = [
    ("CNc1cc(C)nc(Nc2cc3c(c(C4=CCN(C)CC(O)C4)c2C)OCCC3)n1 (single isomer, unassigned) [Compound 419]", "> 2000 nM"),
    ("CNc1cc(C)nc(Nc2cc3c(c(C4=CCC(N)CC4)c2F)OCC3)n1 (single isomer, unassigned) [Compound 435]", "100 to 500 nM"),
    ("CNc1cc(C)nc(Nc2cc3c(c(N4CCCNCC4)c2)OCCC3)n1 [Compound 339]", "500 to 2000 nM"),
]

Form field: IC50 recorded for CNc1cc(C)nc(Nc2cc3c(c(C4=CCNC(C)CC4)c2Cl)OCCC3)n1 (single isomer, unassigned) [Compound 365] with human EHMT2 913-1193 (Homo sapiens, UniProt Q96KQ7) (enter value)
500 to 2000 nM

---

- Target Of Assay: hERG potassium channels (Homo sapiens, UniProt Q12809)
- Sequence (Q12809 whole entry): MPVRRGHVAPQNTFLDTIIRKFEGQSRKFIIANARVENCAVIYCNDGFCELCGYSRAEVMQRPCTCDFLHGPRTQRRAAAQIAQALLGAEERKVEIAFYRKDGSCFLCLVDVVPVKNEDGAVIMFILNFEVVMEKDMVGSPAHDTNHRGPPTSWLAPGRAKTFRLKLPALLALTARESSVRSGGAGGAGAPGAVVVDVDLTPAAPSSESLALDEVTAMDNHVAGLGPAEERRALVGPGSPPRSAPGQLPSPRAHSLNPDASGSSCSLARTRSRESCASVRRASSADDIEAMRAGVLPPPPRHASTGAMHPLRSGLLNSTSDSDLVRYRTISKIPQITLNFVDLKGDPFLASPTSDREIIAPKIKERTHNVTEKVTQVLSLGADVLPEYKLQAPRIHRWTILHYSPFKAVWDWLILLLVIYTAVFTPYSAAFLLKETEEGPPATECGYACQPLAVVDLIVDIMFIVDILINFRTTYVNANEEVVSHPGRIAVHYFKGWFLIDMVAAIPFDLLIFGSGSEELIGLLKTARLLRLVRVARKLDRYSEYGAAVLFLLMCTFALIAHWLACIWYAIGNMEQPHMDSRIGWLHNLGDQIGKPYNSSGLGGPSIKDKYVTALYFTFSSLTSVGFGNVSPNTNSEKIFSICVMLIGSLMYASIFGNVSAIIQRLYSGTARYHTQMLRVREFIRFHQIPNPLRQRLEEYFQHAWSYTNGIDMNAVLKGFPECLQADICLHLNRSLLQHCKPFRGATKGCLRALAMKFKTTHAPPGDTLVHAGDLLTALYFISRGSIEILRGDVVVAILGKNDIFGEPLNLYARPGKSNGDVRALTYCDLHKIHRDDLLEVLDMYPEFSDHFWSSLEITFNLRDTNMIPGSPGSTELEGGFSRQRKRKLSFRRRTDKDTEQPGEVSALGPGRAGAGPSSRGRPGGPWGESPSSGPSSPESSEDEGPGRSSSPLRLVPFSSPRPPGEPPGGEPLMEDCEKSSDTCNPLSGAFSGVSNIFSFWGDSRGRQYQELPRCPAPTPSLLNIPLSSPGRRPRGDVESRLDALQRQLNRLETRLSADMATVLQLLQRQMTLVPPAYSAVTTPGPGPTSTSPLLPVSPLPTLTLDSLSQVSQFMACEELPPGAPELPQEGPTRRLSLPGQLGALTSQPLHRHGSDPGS
- Assay Protocol: In vitro hERG assay (SyncroPatch whole-cell recording)
- Test Context: hERG IC50, SyncroPatch, room temperature
pIC50: −log10 of the molar value.
Metric: pIC50

# Molecule, Observed Measurement
measured = [
    ("CNc1cc(C)nc(Nc2cc3c(c(C4=CCNCC(O)C4)c2F)OCC3)n1 (single isomer, unassigned) [Compound 373]", "< 5.00"),
]

// lookup pIC50 for CNc1cc(C)nc(Nc2cc3c(c(C4C[C@@H]5CN(C)C[C@@H]5C4)c2)OCCO3)n1 (stereo partly drawn)
< 5.00

// lookup pIC50 for CNc1cc(C)nc(Nc2ccc(OC)c(C3=CCNCCC3)c2)n1 [Reference Compound B, reference compound]
5.00 to 5.30

// lookup pIC50 for `CCN1CC=C(c2c(F)c(Nc3nc(C)cc(NC)n3)cc3c2OCC3)CCC1`
5.00 to 5.30

// lookup pIC50 for `CNc1cc(C)nc(Nc2cc(OCCCN3CCCC3)c3c(c2)OCO3)n1`
5.00 to 5.30

// lookup pIC50 for `CNc1cc(C)nc(Nc2cc3c(c(C4=CCNCCC4)c2)CCO3)n1`
< 5.00

---

Listed here are compounds together with their documented IC50.
- Target Of Assay: human EHMT2 913-1193 (Homo sapiens)
- Sequence (Q96KQ7 913-1193): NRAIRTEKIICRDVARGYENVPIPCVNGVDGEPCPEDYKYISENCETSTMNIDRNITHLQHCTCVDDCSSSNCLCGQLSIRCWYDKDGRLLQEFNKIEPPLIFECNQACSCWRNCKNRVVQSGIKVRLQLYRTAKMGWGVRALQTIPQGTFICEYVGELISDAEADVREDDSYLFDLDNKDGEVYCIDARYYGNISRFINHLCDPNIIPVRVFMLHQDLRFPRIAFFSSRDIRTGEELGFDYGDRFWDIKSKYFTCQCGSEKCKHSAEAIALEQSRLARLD
- Assay Protocol: EHMT2 enzyme assay on histone peptide substrate (3H-SAM SPA)
- Test Context: EHMT2 IC50, recombinant human EHMT2 913-1193, histone peptide substrate

# Compound, IC50
measured = [
    ("CNc1cc(C)nc(Nc2cc3c(c(C4C[C@H]5CNC[C@H]5C4)c2)OCCO3)n1 (stereo partly shown) [Compound 334]", "500 to 2000 nM"),
    ("[2H]C([2H])([2H])CNc1cc(C)nc(Nc2cc3c(c(C4=CCN(C)CCC4)c2)OCC3)n1 [Compound 296]", "100 to 500 nM"),
    ("COCCCNc1cc(C)nc(Nc2cc3c(c(C4=CCNCCC4)c2)OCC3)c1 [Compound 293]", "100 to 500 nM"),
    ("CNc1cc(C)nc(Nc2cc3c(c(C4=C[C@H]5CNC[C@H]5C4)c2)OCC3)n1 (racemic) [Compound 133]", "500 to 2000 nM"),
    ("CNc1cc(C)nc(Nc2cc3c(c(C4=CCNC(CO)CC4)c2F)OCC3)n1 (single isomer, unassigned) [Compound 159-a]", "> 2000 nM"),
]

// lookup IC50 for COCCNc1cc(C)nc(Nc2cc3c(c(C4=CCNCCC4)c2F)OCC3)n1 [Compound 289]
< 100 nM

// lookup IC50 for CNc1cc(C)nc(Nc2cc3c(c(C4=CCNC(C)CC4)c2Cl)OCCC3)n1 (single isomer, unassigned) [Compound 357]
< 100 nM

// lookup IC50 for CNc1cc(C)nc(Nc2cc3c(c(C4=CCNC(CF)CC4)c2F)OCC3)n1 (single isomer, unassigned) [Compound 371-a]
> 2000 nM

// lookup IC50 for [2H]C([2H])([2H])Nc1cc(C)nc(Nc2cc3c(c(C4=CCNCCC4)c2)OCCC3)n1 [Compound 264]
< 100 nM

// lookup IC50 for Cc1cc(NC2CCC2)nc(Nc2cc3c(c(C4=CCN(C)CCC4)c2)OCC3)n1 [Compound 318]
500 to 2000 nM

---

- Tested on: H3K9me2 in HCT116 cells
- Assay Protocol: HCT116 H3K9me2 in-cell western assay
- Assay type: cell-based
- Test Context: Homo sapiens, HCT-116, 72 h, HCT116 cells, 72 hours incubation; read-out: H3K9me2 ICW IC50
Listed here are compounds together with their documented IC50.

Look over these answered cases.
# Compound, Observed Measurement
data = [
    ("CNc1cc(C)nc(Nc2cc3c(c(C4=C[C@@H](C)NCCC4)c2F)OCC3)n1", "< 100 nM"),
    ("Cc1cc(NCC2CCCO2)nc(Nc2cc3c(c(C4=CCNCCC4)c2)OCC3)n1 (centres unmarked)", "100 to 500 nM"),
    ("CNc1cc(C)nc(Nc2cc3c(c(C4=C[C@@H]5CNC[C@@H]5C4)c2F)OCC3)n1 (racemic)", "100 to 500 nM"),
    ("CNc1cc(C)nc(Nc2cc3c(c(C4=CCNC(C)CC4)c2Cl)OCCC3)n1 (single isomer, unassigned)", "< 100 nM"),
    ("CNc1cc(C)nc(Nc2cc3c(c(C4=CCNCC4)c2)OCC3)n1", "100 to 500 nM"),
    ("CNc1cc(C)nc(Nc2cc3c(c(C4CCCNCC4)c2)OCC3)n1 (centres unmarked)", "100 to 500 nM"),
]

// lookup IC50 for `[2H]C([2H])([2H])Nc1cc(C)nc(Nc2cc3c(c(C4=CCN(C)CCC4)c2)OCCO3)n1`
100 to 500 nM

// lookup IC50 for `CNc1cc(C)nc(Nc2cc3c(c(C4=C[C@H](C)NCCC4)c2F)OCC3)n1`
< 100 nM

---

- Target Of Assay: human EHMT2 913-1193 (Homo sapiens)
- Assay Protocol: EHMT2 enzyme assay on histone peptide substrate (3H-SAM SPA)
- Test Context: EHMT2 IC50, recombinant human EHMT2 913-1193, histone peptide substrate
Metric: IC50

Look over these answered cases.
# Molecule, IC50
records = [
    ("CNc1cc(C)nc(Nc2cc3c(c(C4=CCNCCC4)c2)OCC3)n1", "< 0.1 µM"),
    ("[2H]C([2H])([2H])CNc1cc(C)nc(Nc2cc3c(c(C4=CCN(C)CCC4)c2)OCO3)n1", "0.1 to 0.5 µM"),
]

// lookup IC50 for `CNc1cc(C)nc(Nc2cc3c(c(C4=CCN(C)CCC4)c2Cl)OCCO3)n1`
< 0.1 µM

---

- Target Of Assay: human EHMT2 913-1193 (Homo sapiens, UniProt Q96KQ7)
- Sequence (Q96KQ7 913-1193): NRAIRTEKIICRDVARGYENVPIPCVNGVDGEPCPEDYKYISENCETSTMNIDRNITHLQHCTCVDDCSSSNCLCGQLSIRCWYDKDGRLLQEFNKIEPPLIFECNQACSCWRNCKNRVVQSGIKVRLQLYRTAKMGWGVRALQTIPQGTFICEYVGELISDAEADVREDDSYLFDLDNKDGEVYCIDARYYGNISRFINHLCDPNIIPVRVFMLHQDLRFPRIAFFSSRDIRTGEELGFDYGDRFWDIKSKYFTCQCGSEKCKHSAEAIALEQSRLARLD
- Assay Protocol: EHMT2 enzyme assay on histone peptide substrate (3H-SAM SPA)
- Test Context: EHMT2 IC50, recombinant human EHMT2 913-1193, histone peptide substrate
pIC50: −log10 of the molar value.
Metric: pIC50

# Compound, Target Of Assay, pIC50
rows = [
    ("[2H]Cc1cc(NC([2H])([2H])[2H])nc(Nc2cc3c(c(C4=CCN(C)CCC4)c2F)OCC3)n1 [Compound 234]", "human EHMT2 913-1193 (Homo sapiens, UniProt Q96KQ7)", "> 7.00"),
]

// lookup pIC50 for Cc1cc(NCC(F)(F)F)nc(Nc2cc3c(c(C4=CCN(C)CCC4)c2)OCC3)n1 [Compound 320]
5.70 to 6.30

// lookup pIC50 for CNc1cc(C)nc(Nc2cc3c(c(C4=CCN(C)CCC4)c2)CCO3)n1 [Compound 333]
5.70 to 6.30

// lookup pIC50 for [2H]C([2H])([2H])Nc1nc(Nc2cc3c(c(C4=CCNCCC4)c2)OCC3)nc(C)c1F [Compound 276]
6.30 to 7.00

// lookup pIC50 for CNc1cc(C)nc(Nc2cc3c(c(OCCCN4CCCC4)c2)OCCN3)n1 [Compound 136]
< 5.70

// lookup pIC50 for [2H]C([2H])([2H])CNc1cc(C)nc(Nc2cc3c(c(C4=CCNCCC4)c2F)OCC3)n1 [Compound 231]
> 7.00

// lookup pIC50 for CNc1cc(C)nc(Nc2cc3c(c(C4=CCN(CCOC)CCC4)c2)OCO3)n1 [Compound 145]
< 5.70

// lookup pIC50 for CNc1cc(C)nc(Nc2cc3c(c(C4=C[C@H]5CNC[C@H]5C4)c2)OC(F)(F)O3)n1 (racemic) [Compound 143]
< 5.70

// lookup pIC50 for [2H]Cc1cc(NC([2H])([2H])[2H])nc(Nc2cc3c(c(C4=CCNCCC4)c2)OCO3)n1 [Compound 252]
> 7.00
